Sourced from patent US20210380702A1

Biological target: T1, recombinant human PD-L1 (amino acids 19-239 of NP_054862.1) with a C-terminal myc-myc-hexahistidine tag (human)
T1 construct: also called hPD-L1-MMH; hPD-L1-MMH Monomer
T1 sequence (chain, as listed by the source limits assumed): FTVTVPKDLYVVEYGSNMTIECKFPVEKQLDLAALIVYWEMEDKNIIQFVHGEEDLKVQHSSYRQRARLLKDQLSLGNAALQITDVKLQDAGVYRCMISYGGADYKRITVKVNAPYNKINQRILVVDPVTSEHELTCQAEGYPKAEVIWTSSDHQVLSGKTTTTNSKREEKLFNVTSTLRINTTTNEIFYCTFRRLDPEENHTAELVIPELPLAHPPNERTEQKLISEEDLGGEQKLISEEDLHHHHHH
Assay: SPR (Biacore), mAb captured, 37C
Property: t1/2; scope: individual binders
Number in min, nothing else.

// below: answered binders
# binder, units of measure, experimental result
records = [
    ("H2aM8321N (antibody, mouse IgG2, V domains shown, also called H2M8321N) VH: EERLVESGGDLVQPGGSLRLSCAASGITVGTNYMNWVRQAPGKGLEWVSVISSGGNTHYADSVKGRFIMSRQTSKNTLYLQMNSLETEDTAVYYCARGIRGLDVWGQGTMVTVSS VL: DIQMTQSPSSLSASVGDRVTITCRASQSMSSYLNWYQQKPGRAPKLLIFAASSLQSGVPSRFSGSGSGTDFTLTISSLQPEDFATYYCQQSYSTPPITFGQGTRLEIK", "min", 1.2),
    ("H2aM8314N (antibody, mouse IgG2, V domains shown, also called H2M8314N) VH: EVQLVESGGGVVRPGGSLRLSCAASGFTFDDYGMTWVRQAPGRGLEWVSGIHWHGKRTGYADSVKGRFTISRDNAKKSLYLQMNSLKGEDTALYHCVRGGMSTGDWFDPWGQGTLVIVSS VL: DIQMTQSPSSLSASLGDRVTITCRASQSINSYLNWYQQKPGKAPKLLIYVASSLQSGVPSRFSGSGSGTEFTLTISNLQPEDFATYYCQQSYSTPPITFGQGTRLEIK", "min", 77),
    ("H1H9336P (antibody, human IgG1, V domains shown) VH: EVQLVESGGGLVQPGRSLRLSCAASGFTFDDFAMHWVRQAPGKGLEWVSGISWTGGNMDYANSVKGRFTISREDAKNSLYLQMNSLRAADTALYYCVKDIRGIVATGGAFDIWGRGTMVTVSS VL: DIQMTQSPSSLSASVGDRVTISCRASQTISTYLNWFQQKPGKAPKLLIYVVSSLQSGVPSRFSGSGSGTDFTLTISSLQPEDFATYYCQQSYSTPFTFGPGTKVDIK", "min", 15),
    ("H2aM8310N (antibody, mouse IgG2, V domains shown, also called H2M8310N) VH: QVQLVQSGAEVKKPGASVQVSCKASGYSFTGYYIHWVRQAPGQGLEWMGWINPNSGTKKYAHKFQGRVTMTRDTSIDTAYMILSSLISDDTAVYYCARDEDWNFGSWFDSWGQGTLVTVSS VL: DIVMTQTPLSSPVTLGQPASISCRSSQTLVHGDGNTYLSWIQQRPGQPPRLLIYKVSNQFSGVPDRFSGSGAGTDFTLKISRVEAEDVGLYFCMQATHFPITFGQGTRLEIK", "min", 9),
    ("H1H9329P (antibody, human IgG1, V domains shown) VH: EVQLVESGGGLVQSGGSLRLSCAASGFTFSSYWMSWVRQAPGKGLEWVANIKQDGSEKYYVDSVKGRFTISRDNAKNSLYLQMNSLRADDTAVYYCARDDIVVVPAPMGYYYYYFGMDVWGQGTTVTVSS VL: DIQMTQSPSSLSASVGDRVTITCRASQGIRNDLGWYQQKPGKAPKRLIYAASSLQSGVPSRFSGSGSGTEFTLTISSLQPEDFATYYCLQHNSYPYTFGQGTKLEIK", "min", 0.04),
    ("H2aM8323N (antibody, mouse IgG2, V domains shown, also called H2M8323N) VH: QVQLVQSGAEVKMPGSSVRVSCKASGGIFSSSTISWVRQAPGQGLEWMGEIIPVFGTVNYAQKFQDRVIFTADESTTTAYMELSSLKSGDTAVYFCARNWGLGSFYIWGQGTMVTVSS VL: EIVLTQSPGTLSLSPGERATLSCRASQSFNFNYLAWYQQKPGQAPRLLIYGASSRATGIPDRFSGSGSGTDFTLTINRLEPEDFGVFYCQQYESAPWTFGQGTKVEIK", "min", 17),
]

Reported t1/2 for H2aM8317N (antibody, mouse IgG2, V domains shown, also called H2M8317N) VH: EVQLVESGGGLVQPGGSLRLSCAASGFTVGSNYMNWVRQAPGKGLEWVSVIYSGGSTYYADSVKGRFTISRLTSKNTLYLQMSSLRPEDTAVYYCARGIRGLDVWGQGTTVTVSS VL: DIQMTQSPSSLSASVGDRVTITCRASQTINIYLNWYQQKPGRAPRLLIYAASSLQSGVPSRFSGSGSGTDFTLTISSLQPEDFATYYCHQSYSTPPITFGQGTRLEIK : what is it?
0.2
